inhibition by entry:
molecular target: Solute carrier family 2, facilitated glucose transporter member 1 (Homo sapiens) (UniProt P11166); test: ST_JUDE_LEISH: Cytotoxicity at 2uM final concentration against transgenic Leishmania Mexicana promastigotes LmGLUT1 that are glucose transport deficient and complemented with the human glucose transporter GLUT1. Activity is measured by DNA content using SYBR green in vitro; format: functional
Sequence (P11166 whole entry): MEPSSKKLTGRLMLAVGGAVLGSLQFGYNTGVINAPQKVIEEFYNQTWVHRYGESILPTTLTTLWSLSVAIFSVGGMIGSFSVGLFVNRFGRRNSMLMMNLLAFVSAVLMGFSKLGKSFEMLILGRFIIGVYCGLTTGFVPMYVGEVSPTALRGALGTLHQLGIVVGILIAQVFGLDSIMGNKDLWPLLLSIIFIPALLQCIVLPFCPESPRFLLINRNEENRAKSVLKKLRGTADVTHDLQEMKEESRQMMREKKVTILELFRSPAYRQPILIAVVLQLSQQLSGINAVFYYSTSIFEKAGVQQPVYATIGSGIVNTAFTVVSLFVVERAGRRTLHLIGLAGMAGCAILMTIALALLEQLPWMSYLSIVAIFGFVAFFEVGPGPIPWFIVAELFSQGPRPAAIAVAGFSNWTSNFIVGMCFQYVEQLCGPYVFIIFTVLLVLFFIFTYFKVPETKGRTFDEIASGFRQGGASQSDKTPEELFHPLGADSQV
Give a bare numeral; the unit % is implied.

Here is how some compounds turned out for inhibition.
| compound | unit descriptor | inhibition |
| --- | --- | --- |
| Cc1c(S(=O)(=O)Nc2ccc3ccn(CCN(C)C)c3c2)sc2ccc(Cl)cc12 | % | -0.44 |
| CC1CNC(c2ccc(NC(=O)Nc3ccc(C4=NC(C)CN4)cc3)cc2)=N1 (stereo not drawn) | % | 4.6 |
| CN(c1ccc2c(c1)nc(NCc1ccccc1)n2C)c1ccnc(Nc2ccc(CS(C)(=O)=O)cc2)n1 | % | 4.69 |

Prompt: Note down inhibition recorded for "CC(C)C[C@@H](NC(=O)OC(C)(C)C)C(=O)Nc1ccc(Cc2ccc(NC(=O)[C@@H](CC(C)C)NC(=O)OC(C)(C)C)cc2)cc1"
Completion: 3.6

Prompt: Note down inhibition recorded for COc1ccc2nccc([C@@H](O)CN3CCC(NC(=O)C(c4cc5ccccc5o4)N4CCN(c5ccccc5OC)CC4)CC3)c2c1 (stereo partly drawn)
Completion: 1.2
